Taken from the supplement of paper PMC10899765.

- System: MCF10A
- measurementDescription: 5+ nucleoli phenotype percent effect (relative to siNT 0% and siKIF11 100%); higher = more cells with five or more nucleoli
- testConditions: 20 nM; 72 h
Recorded 5+ nucleoli phenotype percent effect values for a group of sequences are listed next.

For orientation, consider the following solved cases.
UAUGGCUUUUUAUUCCUAUGUGA [hsa-miR-135a-5p]; -18.7%
CAAAUGAGCUUAAUUUCCUUUU [hsa-miR-1252-3p]; 37.8%
ACAGGCGGCUGUAGCAAUGGGGG [hsa-miR-3937]; -33.4%
GAGGAAACUGAAGCUGAGAGGG [hsa-miR-4496]; 40.4%
AGGGGGCGGGCUCCGGCG [hsa-miR-4488]; 8.35%

Record CUGUACAGGCCACUGCCUUGC [hsa-let-7g-3p] , field 5+ nucleoli phenotype percent effect: -28.3%

# sequence CUGGACUGAGCCAUGCUACUGG [hsa-miR-1269b] ; its 5+ nucleoli phenotype percent effect = 18.3%

Entry under test: AGGCUGUGAUGCUCUCCUGAGCCC [hsa-miR-7974] . Its 5+ nucleoli phenotype percent effect was -12%

---

- Test system: MCF10A
- measurementDescription: one-nucleolus phenotype percent effect (relative to siNT 0% and siNOL11 100%); higher = more cells with one nucleolus (ribosome biogenesis inhibition)
- testConditions: 20 nM; 72 h
endpointLabel: one-nucleolus phenotype percent effect (%)
Numeric only. Scale: %

Examples with answers:
UGUCUACUACUGGAGACACUGG [hsa-miR-934]; 22.5
CAAAUGAGCUUAAUUUCCUUUU [hsa-miR-1252-3p]; -15.1
AGGCUGGGCUGGGACGGA [hsa-miR-4505]; 32.2
GGGUGAGGGCAGGUGGUU [hsa-miR-4710]; 17.1
AGCGGGGAGGAAGUGGGCGCUGCUU [hsa-miR-4706]; -0.404
CAGCCUGACAGGAACAG [hsa-miR-4293]; -6.3

For CAGUUGGGUCUAGGGGUCAGGA [hsa-miR-4259] on MCF10A, measured one-nucleolus phenotype percent effect was 31.8

Record for UGGAGGAGAAGGAAGGUGAUG [hsa-miR-765] under target or system MCF10A: one-nucleolus phenotype percent effect reported as 26.5

The sequence AGGCAGGGGCUGGUGCUGGGCGGG [hsa-miR-4763-3p] , when measured on MCF10A, yielded one-nucleolus phenotype percent effect of 9.32

one-nucleolus phenotype percent effect on MCF10A for UACAAGUCAGGAGCUGAAGCAG [hsa-miR-6882-5p] is -8.28

The sequence AACAUAGAGGAAAUUCCACGU [hsa-miR-376c-3p] on MCF10A: one-nucleolus phenotype percent effect was -18.9

Kindly note: MCF10A, UUGUACAUGGUAGGCUUUCAUU [hsa-miR-493-5p] , one-nucleolus phenotype percent effect value reported: 3.68

Sample CUUAUCAGAUUGUAUUGUAAUU [hsa-miR-374a-3p] , system: MCF10A. Its one-nucleolus phenotype percent effect is -24.3

CAUGGGGUAGGGCAGAGUAGG [hsa-miR-6890-5p] tested on MCF10A gave one-nucleolus phenotype percent effect: 21.6

Form field, one-nucleolus phenotype percent effect with MCF10A, item AGACCCUGCAGCCUUCCCACC [hsa-miR-4725-5p] : 17.4

one-nucleolus phenotype percent effect value, target or system MCF10A, for CGCAGGGGCCGGGUGCUCACCG [hsa-miR-1909-3p] : 20.6

---

- Test system: MCF10A
- measurementDescription: 5+ nucleoli phenotype percent effect (relative to siNT 0% and siKIF11 100%); higher = more cells with five or more nucleoli
- testConditions: 20 nM; 72 h
Each entry gets FALSE if its 5+ nucleoli phenotype percent effect stays under -20%, and TRUE if its 5+ nucleoli phenotype percent effect is -20% or above.

UGGUCUGUUCAUUCUCUCUUUUUGGCC [hsa-miR-7107-3p]; TRUE
CGCGCGGCCGUGCUCGGAGCAG [hsa-miR-4479]; FALSE
UGCCUGGAACAUAGUAGGGACU [hsa-miR-3116]; FALSE

Is 5+ nucleoli phenotype percent effect for CCGGGAGAAGGAGGUGGCCUGG [hsa-miR-6746-5p] at or above -20%?
TRUE

API: above_or_equal(metric=5+ nucleoli phenotype percent effect, cutoff=-20%) for item UGCAUCACAGCCUUUGGCCCUAG [hsa-miR-7112-3p]
TRUE

Tell me whether 5+ nucleoli phenotype percent effect is at least -20% here: CAGCGGAGCCUGGAGAGAAGG [hsa-miR-7846-3p]
TRUE

Quick check: does UGACUGCCUCACUGACCACUU [hsa-miR-5002-3p] have 5+ nucleoli phenotype percent effect greater than or equal to -20%?
FALSE

Is 5+ nucleoli phenotype percent effect for CUUGCCAUCCUGGUCCACUGCAU [hsa-miR-4776-3p] at or above -20%?
FALSE

Dear colleague, could you confirm whether AUCAUGUAUGAUACUGCAAACA [hsa-miR-6516-3p] has 5+ nucleoli phenotype percent effect at or above -20%?
FALSE

Threshold query (5+ nucleoli phenotype percent effect >= -20%) on AAAAGUAAUUGCGGUUUUUGCC [hsa-miR-548o-5p]
TRUE

For this sequence, is measured 5+ nucleoli phenotype percent effect -20% or higher? AUCAUAGAGGAAAAUCCAUGUU [hsa-miR-376b-3p]
TRUE

---

- System: MCF10A
- measurementDescription: 5+ nucleoli phenotype percent effect (relative to siNT 0% and siKIF11 100%); higher = more cells with five or more nucleoli
- testConditions: 20 nM; 72 h
Bucketed by reported 5+ nucleoli phenotype percent effect, buckets being bucket 1: < -10%; bucket 2: ≥ -10% and < 10%; bucket 3: ≥ 10%

Here are 5 sequences together with their reported answers.
ACUUUAACAUGGAGGCACUUGC [hsa-miR-302d-5p]; bucket 3
AUGCGGACCUGGGUUAGCGGAGU [hsa-miR-4754]; bucket 1
ACAUCGCCCCACCUUCCCCAG [hsa-miR-6785-3p]; bucket 3
CCACGUGCUUCUCUUUCCGCAG [hsa-miR-6767-3p]; bucket 1
UUACACACAACUGAGGAUCAUA [hsa-miR-3941]; bucket 2

Field: class (5+ nucleoli phenotype percent effect) — entry: CAGGGGGACUGGGGGUGAGC [hsa-miR-6794-5p]
bucket 2

Category lookup for the sequence UUGGACAGAAAACACGCAGGAA [hsa-miR-4520a-3p]
bucket 1

State the band of CCUGAGAAAAGGGCCAA [hsa-miR-4251]
bucket 2

Consider UCUGUGGAGUGGGGUGCCUGU [hsa-miR-7114-5p] . To which 5+ nucleoli phenotype percent effect class does it belong?
bucket 2

---

- Tested on: MCF10A
- measurementDescription: 5+ nucleoli phenotype percent effect (relative to siNT 0% and siKIF11 100%); higher = more cells with five or more nucleoli
- testConditions: 20 nM; 72 h
Please use 1 whenever 5+ nucleoli phenotype percent effect is not below 20%, and -1 whenever it is.

Solved cases (5 shown):
AUAACAUUGUAAAGCGCUUCUUUCG [hsa-miR-3143]; 1
UCAAUCACUUGGUAAUUGCUGU [hsa-miR-4705]; 1
AUUGCCUCUGUUCUAACACAAG [hsa-miR-3152-5p]; 1
UCUCAGUAAGUGGCACUCUGU [hsa-miR-4797-3p]; -1
AAAUAUGAUGAAACUCACAGCUGAG [hsa-miR-4517]; -1

Item UAAUACUGCCGGGUAAUGAUGGA [hsa-miR-200c-3p] with 5+ nucleoli phenotype percent effect of 20% or above?
1

Does 5+ nucleoli phenotype percent effect meet or surpass 20% for UGAGACCUCUGGGUUCUGAGCU [hsa-miR-769-5p] ?
-1

Test whether the sequence UCUGGCAAGUAAAAAACUCUCAU [hsa-miR-3128] records 5+ nucleoli phenotype percent effect of 20% or higher.
-1

Given the entry UAGGUAGUUUCAUGUUGUUGGG [hsa-miR-196a-5p] , answer whether its 5+ nucleoli phenotype percent effect meets or surpasses 20%.
1

Does the sequence GGCUGGUCAGAUGGGAGUG [hsa-miR-6131] have recorded 5+ nucleoli phenotype percent effect that is 20% or more?
-1

---

- Tested on: MCF10A
- measurementDescription: one-nucleolus phenotype percent effect (relative to siNT 0% and siNOL11 100%); higher = more cells with one nucleolus (ribosome biogenesis inhibition)
- testConditions: 20 nM; 72 h
endpointLabel: one-nucleolus phenotype percent effect (%)
// return numeric value only (unit: %, not printed)

ACCUUGGCUCUAGACUGCUUACU [hsa-miR-212-5p]; -30.9

Here's the next entry for you.
# one-nucleolus phenotype percent effect (sequence: AAAGGAAAGUGUAUCCUAAAAG [hsa-miR-651-3p] ) is -19.5

---

The entries below are paired with their reported percent viability.
- Test system: MCF10A
- measurementDescription: percent viability (nuclei count relative to siNT); higher = more viable cells
- testConditions: 20 nM; 72 h
A number alone suffices; assume %.

Observe how each entry below is paired with its result.
UUUUGCGAUGUGUUCCUAAUAU [hsa-miR-450a-5p]; 65.3
CUAUACAAUCUACUGUCUUUC [hsa-let-7a-3p]; 93.9
CACCGACUCUGUCUCCUGCAG [hsa-miR-6510-3p]; 69.9
ACUCCAGUUUUAGUUCUCUUG [hsa-miR-3925-3p]; 63.4
GAAUACUAAGUAAAAAAUCAGUA [hsa-miR-8084]; 215
UGGGAGGGGAGAGGCAGCAAGCA [hsa-miR-4728-5p]; 7
UUGAGGAGACAUGGUGGGGGCC [hsa-miR-4689]; 103
CGGGGGCGGGGCCGAAGCGCG [hsa-miR-1237-5p]; 85.4
CAAUCACUAACUCCACUGCCAU [hsa-miR-34b-3p]; 50.1
AACCCGUAGAUCCGAACUUGUG [hsa-miR-100-5p]; 45.1

With MCF10A as the test system, CAAUUCUCAAAGGAGCCUCCC [hsa-miR-5571-5p] showed percent viability of 32.7
